Each entry below carries its reported activity, negative = cell killing.
test: Drug repurposing screens with cells derived from glioblastoma tumor samples (AID 1345199); conditions: GBM patient neurospheres viability, ATP luminescence, 48 h; at 45.9 µM (top of the series); tumour line D; note: % is set by controls: 0 for no effect and ±100 for the full control effect; nearly all actives have a fitted effect of over 40% in size
Results filed as inconclusive are left out.
Numeric only. Scale: %

{"columns": ["moleculeSmiles", "activity, negative = cell killing [%]"],
 "data": [
  ["N[C@@H](CCC(=O)N[C@@H](CS)C(=O)NCC(=O)O)C(=O)O", -6.47],
  ["CN(C)CC/C=C1/c2ccccc2COc2ccc(CC(=O)O)cc21", 1.66],
  ["CN(C)CCOc1ccccc1Cc1ccccc1", -22.7],
  ["COC(=O)[C@@H]1CC2=CC(=O)CC[C@]2(C)[C@@]23O[C@@H]2C[C@@]2(C)[C@@H](CC[C@@]24CCC(=O)O4)[C@H]13", -20]
]}

// query I would be grateful if you could share the reported activity, negative = cell killing for CC(C)(CO)[C@@H](O)C(=O)NCCCO .
// result -24.7

// query Try the molecule C/C=C/c1ccc(OC)cc1
// result 3.04

// query Ok, now CN=C(NC#N)NCCSCc1csc(N=C(N)N)n1
// result 14.9

// query Also CN(C)/N=N/c1nc[nH]c1C(N)=O , if possible.
// result -1.38

// query What about this molecule? CC1(C)O[C@@H]2[C@@H](CO[C@@]3(COS(N)(=O)=O)OC(C)(C)O[C@@H]23)O1
// result -22.3

// query Subsequent entry: CC(=O)OCC(=O)[C@@]12N=C(C)O[C@@H]1C[C@H]1[C@@H]3CCC4=CC(=O)C=C[C@]4(C)[C@H]3[C@@H](O)C[C@@]12C
// result -6.5

* * *

Measured remaining proliferation (% of control), lower = more inhibition of individual entries
test: qHTS profiling for inhibitors of Plasmodium falciparum (HB3) proliferation (AID 743324); conditions: Plasmodium falciparum HB3 blood-stage proliferation; at 28.7 µM (top of the series) unless noted;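 note: 100% = DMSO vehicle wells and 0% = artemisinin-treated control wells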
Give just the number in %; leave the unit off.

{"columns": ["molecule", "recordedNumber"],
 "data": [
  ["COc1cccc2c1C(=O)c1c(O)c3c(c(O)c1C2=O)C[C@@](O)(C(=O)CO)C[C@@H]3O[C@H]1C[C@H](N)[C@H](O)[C@H](C)O1", -0.62]
]}

--- query ---
// query Requested field: remaining proliferation (% of control), lower = more inhibition. Item: COc1cccc(CCc2ccccc2OCC(CN(C)C)OC(=O)CCC(=O)O)c1 (centres undefined)
// result 1.2

* * *

Assay: Cell Viability - LYMP2-022 (AID 987);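 note: cells exposed to compound for 24 hr; nearly all actives have a fitted effect of over 55% in size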
Details: LYMP2-022 lymphoblastoid cell viability; series mostly up to 92.2 µM
Source text: NIH Chemical Genomics Center [NCGC] NIH Molecular Libraries Screening Centers Network [MLSCN] National Institutes of Environmental Health Sciences [NIEHS] National Toxicology Program [NTP] We have developed a 1536-well cell-based assay for quantitative high throughput screening (qHTS) against a number of cell lines to determine in vitro cytotoxicity of small molecules. […] 8. Detection; Luminescence; Viewlux plate reader […]
Inconclusive results are not listed. Active and inactive are the calls of the source. Calls come from the whole dose curve; as a rule, active = well fitted cell-killing curve with a large enough effect; inconclusive = small, poorly fitted or top-dose-only effect; inactive = flat fitted curve, though single readings scatter.
Select the matching outcome among active, inactive

Previously resolved entries follow.
{"columns": ["compound", "labelClass"],
 "data": [
  ["CC/C(=C(/CC)c1ccc(O)cc1)c1ccc(O)cc1", "inactive"],
  ["COc1cccc2c1C(=O)c1c(O)c3c(c(O)c1C2=O)C[C@@](O)(C(C)=O)C[C@@H]3O[C@H]1C[C@H](N)[C@H](O)[C@H](C)O1", "active"],
  ["O=c1ccc2ccccc2o1", "inactive"]
]}

// query How did this test come out for COc1cccc2c1C(=O)c1c(O)c3c(c(O)c1C2=O)C[C@@](O)(C(=O)CO)C[C@@H]3O[C@H]1C[C@H](N)[C@H](O)[C@H](C)O1 ?
// result active

// query // next record CC(O)C(=O)O (configuration not stated)
// result inactive

// query Please do the same for C=C(CC)C(=O)c1ccc(OCC(=O)O)c(Cl)c1Cl as well.
// result active

* * *

system: CP217; test: qHTS profiling for inhibitors of Plasmodium falciparum proliferation (AID 504749); note: nearly all actives have a fitted effect of over 60% in size; details: P. falciparum in erythrocytes, SYBR Green DNA, 72 h; series mostly up to 28.7 µM
Inconclusive results are not listed. Calls of active or inactive are those of the source. Calls come from the whole dose curve; as a rule, active = well fitted inhibition curve with a large enough effect; inconclusive = small, poorly fitted or top-dose-only effect; inactive = flat fitted curve, though single readings scatter.
// allowed return values: active, inactive

Answered examples (5):
{"columns": ["molecule", "assayTarget", "labelClass"],
 "data": [
  ["CCN1CCC[C@H]1CNC(=O)c1c(OC)ccc(Br)c1OC", "CP217", "inactive"],
  ["CCOC(=O)COc1ccc2c(C)c(CCN(CC)CC)c(=O)oc2c1Cl", "CP217", "inactive"],
  ["CC(C)COC(=O)c1ccc(N)cc1", "CP217", "inactive"],
  ["COc1c2occc2c(OC)c2c(=O)cc(C)oc12", "CP217", "inactive"],
  ["Cc1c(C(C)C)c(=O)n(-c2ccccc2)n1C", "CP217", "inactive"]
]}

Please turn your attention to the following entry.
// query For CCCCCCC[N+](CC)(CC)CCCCc1ccc(Cl)cc1 , what call appears in the results of this test?
// result active

* * *

test system: NIH3T3; assay: Cytotoxic Profiling of Annotated Libraries Using Quantitative High-Throughput Screening (AID 1296008); conditions: Five cell lines viability, CellTiter-Glo ATP luminescence, 48-72 h; stronger effect = lower value; note: % is set by controls: 0 for no effect and ±100 for the full control effect; nearly all actives have a fitted effect of over 60% in size
Records with an inconclusive call do not appear.
observable: max response (%)
Output spec: scalar in %, unitless text.

Examples from the recorded data:
{"columns": ["molecule", "assayTarget", "displayUnit", "max response"],
 "data": [
  ["CC(=O)OCC(=O)[C@@]1(O)[C@H](C)C[C@H]2[C@@H]3CCC4=CC(=O)C=C[C@]4(C)[C@@]3(F)[C@@H](O)C[C@@]21C", "NIH3T3", "%", 4.69],
  ["C[C@H](O)C(=O)Nc1c(I)c(C(=O)NC(CO)CO)c(I)c(C(=O)NC(CO)CO)c1I", "NIH3T3", "%", -5.03],
  ["COc1cc2c(cc1OC)C(C(C(=O)N(CCc1ccc(OC)c(OC)c1OC)CCc1ccc(OC)c(OC)c1OC)c1ccccc1)=NCC2 (centres undefined)", "NIH3T3", "%", 0.673],
  ["C=CCc1ccc(O)c(OC)c1", "NIH3T3", "%", 3.27],
  ["CCC(C(=O)OCCN(CC)CC)c1ccccc1 (centres undefined)", "NIH3T3", "%", -17.3],
  ["C[C@]12CC[C@H]3[C@@H](CCC4=CC(=O)CC[C@@]43C)[C@@H]1CC[C@@H]2C(=O)CO", "NIH3T3", "%", -2.44],
  ["O=C(Nc1ccc(Cl)c(Cl)c1)C1CC1", "NIH3T3", "%", -1.64],
  ["COc1cc(/C=C/C(=O)O[C@H]2CC[C@]34C[C@]35CC[C@]3(C)[C@@H]([C@H](C)CCC=C(C)C)CC[C@@]3(C)[C@@H]5CC[C@H]4C2(C)C)ccc1O", "NIH3T3", "%", 0.391]
]}

// query Report max response for COc1cc(-c2ccc(=O)[nH]n2)ccc1OC(F)F tested on NIH3T3.
// result -9.32

* * *

assay: qHTS for differential inhibitors of proliferation of Plasmodium falciparum line W2 (AID 1883); details: Plasmodium falciparum W2 proliferation inhibition; series mostly up to 28.7 µM;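 note: parasites grown with compound for 72 h before lysis and staining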
Inconclusive results are not listed. Active and inactive are the calls of the source. Calls come from the whole dose curve; as a rule, active = well fitted curve in the direction sought with a large enough effect; inconclusive = small, poorly fitted or top-dose-only effect, or another doubt; inactive = no such curve, though single readings can be large or run the other way.
Respond with a class label; see 1 (yes) (active), 0 (no) (inactive)

Would you please look over these solved cases?
{"columns": ["molecule", "labelClass"],
 "data": [
  ["CNCCC=C1c2ccccc2CCc2ccccc21", "1 (yes)"],
  ["COc1cc(-c2ccc(=O)[nH]n2)ccc1OC(F)F", "0 (no)"],
  ["CC1(C)CCC(NC(=O)[C@@H](N)CCC(=O)O)CC1", "0 (no)"],
  ["COc1cc(NS(C)(=O)=O)ccc1Nc1c2ccccc2nc2ccccc12", "1 (yes)"],
  ["C[N+]1(CCCCC[N+]2(C)CCCC2)CCCC1", "0 (no)"]
]}

// query For N[C@H](CO)C(=O)O , what call appears in the results of this test?
// result 0 (no)

// query C1CCc2nnnn2CC1 ?
// result 0 (no)

// query One more molecule: O=C(O)c1cc2cc(Cc3cccnc3)ccc2o1
// result 0 (no)

// query Another: O=C1CCC(c2ccc(-n3ccnc3)cc2)=NN1
// result 0 (no)

// query Then N[C@@H](Cc1cnc[nH]1)C(=O)O ?
// result 0 (no)

// query Same for CCCn1c(=O)[nH]c(=O)c2[nH]cnc21
// result 0 (no)

// query // same read-out, input: CCC(NC(C)C)C(O)c1ccc(O)c(O)c1 (stereo not drawn)
// result 1 (yes)

// query Proceed to Oc1ccc(O)cc1
// result 1 (yes)

Data credit: PubChem BioAssay (NCATS)
